The entries below come with measured koff values attached.
biological target: Human BCMA (human) (UniProt Q02223); experiment: SPR, IgG on chip, huBCMA analyte
Metric name: koff (s⁻¹)

>>> numeric_value("COMBO_Rd4_0.6nM_C29 (antibody, V domains shown, IgG) VH: EVQLLESGGGLVQPGGSLRLSCAASGFTFSSYPMSWVRQAPGKGLEWVSAIGGSGGSLPYADSVKGRFTISRDNSKNTLYLQMNSLRAEDTAVYYCARYWPMDIWGQGTLVTVSS VL: EIVLTQSPGTLSLSPGERATLSCRASQSVSSSYLAWYQQKPGQAPRLLMYDASIRATGIPDRFSGSGSGTDFTLTISRLEPEDFAVYYCQQYQSWPLTFGQGTKVEIK")
0.000277
>>> numeric_value("C01_Rd4_0.6nM_C03 (antibody, V domains shown, IgG) VH: EVQLLESGGGLVQPGGSLRLSCAASGFTFSSYPMSWVRQAPGKGLEWVSAIGGSGGSLPYADSVKGRFTISRDNSKNTLYLQMNSLRAEDTAVYYCARYWPMDSWGQGTLVTVSS VL: EIVLTQSPGTLSLSPGERATLSCRASCDVSSTYLAWYQQKPGQAPRLLIYDASSRAPGIPDRFSGSGSGTDFTLTISRLEPEDFAVYYCQQYMRSPLTFGQGTKVEIK")
0.015
